Form field: EC50 (one value per entry).
biological target: human GPR119 (Homo sapiens); test: cAMP assay (LANCE cAMP kit), activation of GPR119; conditions: HEK293 cells expressing human GPR119, 30 minutes incubation
Sequence (Q8TDV5 whole entry): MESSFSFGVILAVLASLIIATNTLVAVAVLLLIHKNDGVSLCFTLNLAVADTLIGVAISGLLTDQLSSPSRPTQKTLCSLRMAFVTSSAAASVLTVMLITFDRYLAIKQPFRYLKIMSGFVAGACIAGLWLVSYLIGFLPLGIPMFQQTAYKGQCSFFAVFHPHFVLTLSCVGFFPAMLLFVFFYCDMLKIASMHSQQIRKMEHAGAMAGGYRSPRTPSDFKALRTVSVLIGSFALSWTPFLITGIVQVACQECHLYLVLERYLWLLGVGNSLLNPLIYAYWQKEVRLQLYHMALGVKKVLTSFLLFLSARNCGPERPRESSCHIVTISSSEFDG

Known EC50 results, listed for orientation:
CC1(OC(=O)N2CC3COCC(C2)C3Oc2ncnc(OC3CCN(S(=O)(=O)C4CCCC4)CC3)c2F)CC1 (centres unmarked); 0.1 to 0.2 µM
CC(C)C(=O)N1CCC(Oc2ncnc(OC3C4COCC3CN(C(=O)OC3(C)CC3)C4)c2F)CC1 (centres unmarked); 0.5 to 1 µM
CS(=O)(=O)N1CCC(Oc2ncnc(OC3C4COCC3CN(c3ncc(Cl)cn3)C4)c2F)CC1 (centres unmarked); < 0.1 µM
CC(C)S(=O)(=O)N1CCC(Oc2ncnc(OC3C4COCC3CN(C(=O)OC3(C)CC3)C4)c2F)CC1 (centres unmarked); < 0.1 µM

Now for the molecule whose EC50 we want.
Field EC50 (entry CC1(OC(=O)N2CC3COCC(C2)C3Oc2ncnc(OC3CCN(S(=O)(=O)C4CC4)CC3)c2F)CC1 (centres unmarked) ) reads 0.1 to 0.2 µM
